assay.readout: melting point

Observe how each entry below is paired with its result.
CN(C)Cc1c[nH]c2ccc(-c3nnc(CSCCOc4ccccc4)o3)cc12.O=C(O)C(=O)O [Example 6]    159 to 163 °C
CN(C)Cc1cc2ccc(-c3nnc(CSCCOc4ccccc4)o3)cc2n1C.O=C(O)C(=O)O [Example 5]    125.5 to 129 °C
CN(C)Cc1ccc2cc(-c3nnc(CSCCOc4ccccc4)o3)ccc2c1 [Example 11]    95 to 96 °C

Below: the item to evaluate.
Q: Report measured melting point; entry is CN(C)Cc1c[nH]c2cc(-c3nnc(CSCCOc4ccccc4)o3)ccc12.O=C(O)/C=C\C(=O)O [Example 7]
A: 127 to 129 °C

These measurements were taken from patent US20070135485A1.
